- System: TRPV1 (Rattus norvegicus, UniProt O35433)
- Construct: FLAG; expressed in transfected cells
- Sequence (O35433 whole entry): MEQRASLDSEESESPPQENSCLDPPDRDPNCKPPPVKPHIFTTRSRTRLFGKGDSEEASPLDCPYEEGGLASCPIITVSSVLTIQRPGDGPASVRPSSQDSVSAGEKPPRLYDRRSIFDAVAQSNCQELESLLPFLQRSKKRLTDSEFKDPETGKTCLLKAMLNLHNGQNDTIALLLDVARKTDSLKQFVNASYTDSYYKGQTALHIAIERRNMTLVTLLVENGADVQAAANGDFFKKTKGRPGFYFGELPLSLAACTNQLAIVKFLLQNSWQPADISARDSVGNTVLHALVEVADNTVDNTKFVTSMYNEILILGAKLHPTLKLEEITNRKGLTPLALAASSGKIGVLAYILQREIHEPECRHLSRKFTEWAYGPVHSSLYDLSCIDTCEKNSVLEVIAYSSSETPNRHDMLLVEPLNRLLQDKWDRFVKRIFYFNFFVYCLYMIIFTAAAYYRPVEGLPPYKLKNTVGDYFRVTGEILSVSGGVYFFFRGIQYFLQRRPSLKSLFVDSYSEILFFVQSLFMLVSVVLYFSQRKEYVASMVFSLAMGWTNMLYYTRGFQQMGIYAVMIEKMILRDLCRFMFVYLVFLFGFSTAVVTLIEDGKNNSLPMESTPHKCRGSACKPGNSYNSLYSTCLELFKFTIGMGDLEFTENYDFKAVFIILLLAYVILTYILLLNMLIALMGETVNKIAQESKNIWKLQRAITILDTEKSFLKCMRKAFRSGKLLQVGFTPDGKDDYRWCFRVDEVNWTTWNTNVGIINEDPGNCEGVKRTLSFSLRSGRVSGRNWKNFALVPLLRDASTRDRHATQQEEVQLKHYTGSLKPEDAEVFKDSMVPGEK
- Method description: Whole-cell patch clamp of TRPV1 currents in HEK293 cells overexpressing TRPV1 (HEK293-V1)
- Format: cell-based
- Run conditions: dose 30 micromolar; 120 s; Ca 1 mM external, unbuffered internal calcium
Please provide measured Max I amplitude for the entries that follow.
Numbers only, in nA.

Example compounds with recorded Max I amplitude:
| Compound | System | Observation type | Endpoint unit | Numeric result |
| --- | --- | --- | --- | --- |
| CCCCCc1cc(O)c(C/C=C(\C)CCC=C(C)C)c(O)c1 [CBG, Cannabigerol] | TRPV1 (Rattus norvegicus, UniProt O35433) | Max I amplitude | nA | 0.6 |
| C=C(C)[C@@H]1CCC(C)=C[C@H]1c1c(O)cc(CCC)cc1O [CBDV, Cannabidivarin] | TRPV1 (Rattus norvegicus, UniProt O35433) | Max I amplitude | nA | 1.5 |
| C=C(C)[C@@H]1CCC(C)=C[C@H]1c1c(O)cc(CCCCC)cc1O [CBD, Cannabidiol] | TRPV1 (Rattus norvegicus, UniProt O35433) | Max I amplitude | nA | 2.2 |

Problem: # return Max I amplitude of CCCCCc1cc(O)c2c(c1)OC(C)(C)c1ccc(C)cc1-2 [CBN, Cannabinol] (system: TRPV1 (Rattus norvegicus, UniProt O35433))
Solution: 0.6
